Literature-derived pIC50 for JNK3 (Homo sapiens) follows.
pIC50: −log10 of the molar value.

The cases that follow already have their pIC50 on record.
Entry under review: `O=C(c1nc(-c2c[nH]c3ncc(C4CCCCC4)cc23)cs1)N1CCCCC1` . Reported pIC50?
6.62

Also, `O=C(CN1C(=O)CCc2ncccc21)Nc1scc(Br)c1-c1ncco1` please.
> 7.00

One more molecule: `CNC(=O)c1cc(-n2ncc3cc(Oc4ccccc4Cl)cnc32)cs1`
> 6.70

Cool, now `CC(C)N1CCN([C@H]2CC[C@@H](c3cnc4[nH]cc(-c5cnn(C)c5)c4c3)CC2)CC1`
6.89

Request: `O=C(Nc1cccc(C(=O)c2c[nH]c3ncc(Cl)cc23)c1)Nc1ccon1`
≥ 5.00

New cases:
Form field: reported pIC50 of `CC(C)CN(CC(=O)NCCCCCCNC(=O)c1ccc(-c2n[nH]c3ccccc23)cc1)C(=O)CNC(=O)c1ccc2c(c1)OCCO2`
6.83

And for `O=C(CN1C(=O)C(F)(F)c2ccccc21)Nc1scc(Br)c1-c1nnc[nH]1` ?
5.00 to 7.00

Let us now turn to `CS(=O)(=O)CCNC(=O)c1ccc(S(=O)(=O)NCc2c[nH]c3ncccc23)cc1`
≥ 5.00
